- Method summary: Oral bioavailability in rat at 5 mg/kg, po
- Assay type: ADME, organism-based
- Assay setup: in vivo
Recorded metric: bioavailability
Quote the value and follow it with the unit of measurement.

## Input Annotate the compound CNC(=O)c1cccc(F)c1Nc1nc(Nc2ccc3c(c2)NC(=O)CCC3)ncc1Cl with its measured bioavailability.
## Output 8%

====

- Method summary: Half life in rat at 1 mg/kg, iv
- Assay type: ADME, organism-based
- Set-up: dose 1 mg/kg, route intravenous
- Assay setup: in vivo
Recorded metric: half-life (min)
Report as a plain number; the unit min is understood.

## Input Annotate the compound CNC(=O)c1cccc(F)c1Nc1nc(Nc2ccc3c(c2)NC(=O)CCC3)ncc1Cl with its measured half-life.
## Output 42

====

- Method summary: AUC (0 to infinity) in rat at 5 mg/kg, po
- Assay type: ADME, organism-based
- Parameters: time infinity, dose 5 mg/kg, route oral
- Assay setup: plasma
Recorded metric: AUC(0-inf) (ng·h/mL)
Report as a plain number; the unit ng·h/mL is understood.

## Input Annotate the molecule CNC(=O)c1cccc(F)c1Nc1nc(Nc2ccc3c(c2)NC(=O)CCC3)ncc1Cl with its measured AUC(0-inf).
## Output 592

====

- Method summary: Clearance in rat at 1 mg/kg, iv
- Format: ADME, organism-based
- Set-up: dose 1 mg/kg, route intravenous
- Assay setup: in vivo
Recorded metric: clearance (mL/min/kg)
Report as a plain number; the unit mL/min/kg is understood.

## Input Annotate the molecule CNC(=O)c1cccc(F)c1Nc1nc(Nc2ccc3c(c2)NC(=O)CCC3)ncc1Cl with its measured clearance.
## Output 15
